Would you kindly list selectivity ratio for each of these molecules?
experiment: Selectivity index, ratio of CC50 for cytotoxicity against human MT4 cells assessed as reduction in cell viability to EC50 for antiviral activity against human MT4 cells assessed as protection against virus-induced cytopathic effect; type: toxicity, cell-based; details: read-out: Ratio CC50/EC50
Numbers only.

>>> df
                          structureassmiles   recordedendpoint  datavalue
0  Cc1cc(/C=C/C#N)cc(C)c1Oc1nc(Nc2ccc(N3CCN(S(C)(=O)=O)CC3)c(F)c2)ncc1-c1cnc(N)nc1  selectivity ratio        918
1  Cc1cc(/C=C/C#N)cc(C)c1Oc1nc(Nc2ccc(N3CCN(S(C)(=O)=O)CC3)c(C#N)c2)ncc1-c1cccnc1  selectivity ratio      22700
2  Cc1cc(/C=C/C#N)cc(C)c1Oc1nc(Nc2ccc(N3CCS(=O)(=O)CC3)c(C#N)c2)ncc1-c1ccc(N)nc1  selectivity ratio         16

Read the next record carefully.
Q) Please indicate selectivity ratio recorded for Cc1cc(/C=C/C#N)cc(C)c1Oc1nc(Nc2ccc(N3CCN(S(C)(=O)=O)CC3)c(C#N)c2)ncc1-c1cnc(F)nc1
A) 784
